# TEST_DESCRIPTION: Aqueous solubility of parent compound and sodium salt
EXPERIMENTAL_ENDPOINT: solubility (µg/mL)

| COMPOUND | EXPERIMENTAL_ENDPOINT | DATA_VALUE |
| --- | --- | --- |
| O=C1NC(=S)N/C1=C/c1ccc(-c2ccc3c(c2)CCNC3=O)s1 [compound 167] | solubility | 0.53 |

* * *

# ASSAY_SYSTEM: perforin produced by an intact NK cell line (KHYG-1) (Homo sapiens)
# Construct: the perforin is delivered by a functional NK cell; endogenous in cells; host or cells: KHYG-1 NK cells (K562 target cells)
# Sequence (P14222 22-555): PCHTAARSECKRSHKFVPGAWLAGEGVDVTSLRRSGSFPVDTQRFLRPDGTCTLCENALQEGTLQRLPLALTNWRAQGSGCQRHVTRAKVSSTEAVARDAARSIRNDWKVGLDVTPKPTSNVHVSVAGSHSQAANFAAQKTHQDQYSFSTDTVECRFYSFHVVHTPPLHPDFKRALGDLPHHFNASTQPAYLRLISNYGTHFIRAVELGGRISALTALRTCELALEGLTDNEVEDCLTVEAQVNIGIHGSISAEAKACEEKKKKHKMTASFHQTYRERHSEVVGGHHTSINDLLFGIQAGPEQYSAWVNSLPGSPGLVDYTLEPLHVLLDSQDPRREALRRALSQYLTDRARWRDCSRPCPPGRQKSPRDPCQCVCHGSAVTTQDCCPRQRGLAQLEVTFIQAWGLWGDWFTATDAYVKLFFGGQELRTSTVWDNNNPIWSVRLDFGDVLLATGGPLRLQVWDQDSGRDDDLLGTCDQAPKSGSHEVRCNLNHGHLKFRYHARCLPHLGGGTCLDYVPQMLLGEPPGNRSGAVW
# TEST_DESCRIPTION: KHYG-1 cytotoxicity assay: perforin-induced lysis of K562 target cells co-incubated with KHYG-1 NK cells
# Assay type: cell-based
# CONDITION: 20 μM, 10% mouse serum, K562 targets, ± SEM; read-out: KHYG-1 inhibition (% at 20 μM), 10% serum
The entries below come with measured inhibition at 20 µM values attached.

| MOLECULE | inhibition at 20 µM / % |
| --- | --- |
| O=C1NC(=S)N/C1=C/c1ccc(-c2ccc3c(c2)CNC3=O)s1 [compound 118] | 55 |
| O=C1NC(=S)N/C1=C/c1ccc(-c2ccc3c(c2)CNC3=O)cn1 [compound 207] | 13 |
| CC1c2cc(-c3ccc(/C=C4/NC(=S)NC4=O)s3)ccc2C(=O)N1C (stereo not shown) [compound 135] | 67 |
| O=C1NC(=S)N/C1=C/c1ccc(-c2ccc3c(c2)C(=O)NCC3)s1 [compound 168] | 23 |
| O=C1NC(=O)/C(=C\c2ccc(-c3ccc4c(c3)CNC4=O)s2)N1 [compound 136] | 50 |
| O=C1NC(=S)N/C1=C/c1ccc(-c2ccc3c(c2)COC3=O)s1 [compound 4] | 38.9 |
| O=C1NC(=S)N/C1=C/c1ccc(-c2ccc3c(c2)CN(CCO)C3=O)s1 [compound 125] | 24 |
| CCOC(=O)N1Cc2cc(-c3ccc(/C=C4/NC(=S)NC4=O)s3)ccc2C1=O [compound 129] | 35 |
| O=C1NC(=S)N/C1=C/c1ccc(-c2ccc3c(c2)CN(CCCO)C3=O)s1 [compound 126] | 17 |
| CN1Cc2cc(-c3ccc(/C=C4/NC(=S)NC4=O)s3)ccc2C1=O [compound 119] | 37 |
